target: Cannabinoid receptor 1 (Rattus norvegicus, UniProt P20272)
Sequence (P20272 whole entry): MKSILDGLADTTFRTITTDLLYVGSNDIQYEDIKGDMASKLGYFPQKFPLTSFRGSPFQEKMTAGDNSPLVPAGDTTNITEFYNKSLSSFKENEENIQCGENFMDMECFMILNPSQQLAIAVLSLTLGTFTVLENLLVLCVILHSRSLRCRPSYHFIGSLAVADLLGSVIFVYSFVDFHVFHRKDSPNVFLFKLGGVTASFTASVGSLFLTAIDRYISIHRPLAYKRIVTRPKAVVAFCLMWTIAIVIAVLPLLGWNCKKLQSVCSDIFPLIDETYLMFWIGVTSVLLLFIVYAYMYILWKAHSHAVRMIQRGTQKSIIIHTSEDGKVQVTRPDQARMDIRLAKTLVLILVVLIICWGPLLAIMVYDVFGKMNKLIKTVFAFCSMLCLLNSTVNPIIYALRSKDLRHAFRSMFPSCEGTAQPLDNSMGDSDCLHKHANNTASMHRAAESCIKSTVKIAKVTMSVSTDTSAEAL
Response field label takes label 1 when IC50 is strictly below 60 nM and label 0 in all other cases.

1) C[C@H](Nc1cc(NC2CCCCC2)nc(C(F)(F)F)n1)[C@@H](Cc1ccc(Cl)cc1)c1cccc(Br)c1 :: label 1
2) CCCCCNc1cc(N[C@@H](C)[C@@H](Cc2ccc(Cl)cc2)c2cccc(Br)c2)ncn1 :: label 0
3) C[C@H](Nc1cc(C2CCCCC2)ncn1)[C@@H](Cc1ccc(Cl)cc1)c1cccc(Br)c1 :: label 0
4) CCCNc1cc(N[C@@H](C)[C@@H](Cc2ccc(Cl)cc2)c2cccc(Br)c2)ncn1 :: label 1

Consider CC[C@H](Nc1cc(NC2CCCC2)ncn1)[C@@H](Cc1ccc(Cl)cc1)c1cccc(Br)c1 . Does its IC50 lie strictly below 60 nM?
label 0

###

target: Cannabinoid receptor 1 (Rattus norvegicus, UniProt P20272)
pIC50: −log10 of the molar value.
Label Not met if pIC50 falls below 7; label Met in every other case.

Previously resolved entries follow.
1. CC1CC(C)CN(c2cc(N[C@@H](C)[C@@H](Cc3ccc(Cl)cc3)c3cccc(Br)c3)ncn2)C1 (some centres not stated) :: Not met
2. C[C@H](Nc1cc(NC2CCCCC2)ncn1)[C@@H](Cc1ccc(Cl)cc1)c1cccc(Br)c1 :: Met
3. C[C@H](Nc1cc(NCc2ccccc2)ncn1)[C@@H](Cc1ccc(Cl)cc1)c1cccc(Br)c1 :: Not met

# check: pIC50 of CCCCNc1cc(N[C@@H](C)[C@@H](Cc2ccc(Cl)cc2)c2cccc(Br)c2)nc(C(F)(F)F)n1 is greater than or equal to 7
Met

Same lookup for CC[C@H](Nc1cc(NC2CCCCCC2)ncn1)[C@@H](Cc1ccc(Cl)cc1)c1cccc(Br)c1 , please.
Not met

Same lookup for CSc1nc(NC2CCCCCC2)cc(N[C@@H](C)[C@@H](Cc2ccc(Cl)cc2)c2cccc(Br)c2)n1 , please.
Met

Same lookup for CCCCCCNc1cc(N[C@@H](C)[C@@H](Cc2ccc(Cl)cc2)c2cccc(Br)c2)ncn1 , please.
Not met

Same lookup for C[C@H](Nc1cc(NC2CCCCCC2)ncn1)[C@@H](Cc1ccc(Cl)cc1)c1cccc(Br)c1 , please.
Met

Same lookup for C[C@H](Nc1cc(NC2CCCCCC2)nc(C(F)(F)F)n1)[C@@H](Cc1ccc(Cl)cc1)c1cccc(Br)c1 , please.
Met

###

pIC50 values recorded for Cannabinoid receptor 1 (Rattus norvegicus, UniProt P20272)
One number for each entry, as −log10 of the molar value.

Batch lookup, pIC50 per entry.
1. C[C@H](Nc1cc(N2CCCCC2)nc(C(F)(F)F)n1)[C@@H](Cc1ccc(Cl)cc1)c1cccc(Br)c1
2. CCC(CC)Nc1cc(N[C@@H](C)[C@@H](Cc2ccc(Cl)cc2)c2cccc(Br)c2)ncn1
3. CCCCCOc1cc(N[C@@H](C)[C@@H](Cc2ccc(Cl)cc2)c2cccc(Br)c2)ncn1

6.71
7.03
6.69

###

target: Cannabinoid receptor 2 (Homo sapiens, UniProt P34972); assay: Displacement of [3H]WIN-55212-2 from human recombinant CB2 receptor expressed in CHOK1 cells by liquid scintillation spectrometry
Sequence (P34972 whole entry): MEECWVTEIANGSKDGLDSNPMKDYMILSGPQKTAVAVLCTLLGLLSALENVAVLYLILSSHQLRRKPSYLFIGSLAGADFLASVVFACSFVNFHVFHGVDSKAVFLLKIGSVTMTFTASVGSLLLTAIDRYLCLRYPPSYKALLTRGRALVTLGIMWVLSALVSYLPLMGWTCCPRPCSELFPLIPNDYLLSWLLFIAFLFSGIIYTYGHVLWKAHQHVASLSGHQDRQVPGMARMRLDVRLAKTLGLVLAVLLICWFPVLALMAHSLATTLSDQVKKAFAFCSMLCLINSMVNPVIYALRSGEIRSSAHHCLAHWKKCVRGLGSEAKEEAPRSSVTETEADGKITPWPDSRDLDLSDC
Endpoint Name: pIC50
Answers are plain numbers, as −log10 of the molar value.

Which pIC50 reading was recorded for the compound CCCCNc1cc(N[C@@H](C)[C@@H](Cc2ccc(Cl)cc2)c2cccc(Br)c2)ncn1 ?
5.53

###

pIC50 values recorded for Cannabinoid receptor 1 (Rattus norvegicus, UniProt P20272)
Answers are plain numbers, as −log10 of the molar value.

Here are 4 compounds together with their reported answers.
1) CC1CCN(c2cc(N[C@@H](C)[C@@H](Cc3ccc(Cl)cc3)c3cccc(Br)c3)ncn2)CC1 :: 7.12
2) C[C@H](Nc1cc(Nc2ccc(F)cc2)ncn1)[C@@H](Cc1ccc(Cl)cc1)c1cccc(Br)c1 :: 7.01
3) CCCCC(CC)CNc1cc(N[C@@H](C)[C@@H](Cc2ccc(Cl)cc2)c2cccc(Br)c2)ncn1 (stereo partly drawn) :: 6.99
4) Cc1nc(N[C@@H](C)[C@@H](Cc2ccc(Cl)cc2)c2cccc(Br)c2)cc(N(C)C)n1 :: 6.89

Batch lookup, pIC50 per entry.
1. CSc1nc(N[C@@H](C)[C@@H](Cc2ccc(Cl)cc2)c2cccc(Br)c2)cc(N2CCCCC2)n1
2. COc1cc(N[C@@H](C)[C@@H](Cc2ccc(Cl)cc2)c2cccc(Br)c2)ncn1

[6.96, 6.87]

Batch lookup, pIC50 per entry.
1. CCCCNc1cc(N[C@@H](C)[C@@H](Cc2ccc(Cl)cc2)c2cccc(Br)c2)nc(SC)n1
2. Cc1nc(NC2CCCC2)cc(N[C@@H](C)[C@@H](Cc2ccc(Cl)cc2)c2cccc(Br)c2)n1

[7.16, 7.01]
